Each recorded value in this set is attributed to ChEMBL document CHEMBL3425432.

EXPERIMENTAL DETAILS: Retention time of the compound by HPLC method
Format: physicochemical
*1 amine or outer side, *2 acyl side, *3 side chain or, on linkers, in order; H or OH if unused. Where a SMILES comes first, the peptide text is derived from it. [ ]: non-standard residue; d: D form. The star is where a group is joined. F2Pmp = N[C@@H](Cc1ccc(C(F)(F)P(=O)(O)O)cc1)C(=O)O; Biotin = O=C1N[C@H]2[C@H](CS[C@H]2CCCCC(=O)*)N1; X1 = [N-]=[N+]=N[C@@H](CCCCN[*:1])C(=O)[*:2]; pY = N[C@@H](Cc1ccc(OP(=O)(O)O)cc1)C(=O)O; Hexanoyl(6-N3) = [N-]=[N+]=NCCCCCC(=O)*; Pra = C#CC[C@H](N)C(=O)O
Class Satisfied: Retention_time at least 8 min. Class Not satisfied: Retention_time below 8 min.

Examples with answers:
COMPOUND	ANSWER LABEL
NC(=O)CC[C@@H]1NC(=O)[C@@H]2CCCN2C(=O)[C@H](CCC(=O)O)NC(=O)[C@@H](CCCCNC(=O)CCCC[C@@H]2SC[C@@H]3NC(=O)N[C@@H]32)n2cc(nn2)C[C@H](C(N)=O)NC(=O)[C@H](CC(N)=O)NC(=O)[C@H](CCC(=O)O)NC(=O)CNC(=O)[C@@H]2CCCN2C(=O)[C@H](CCC(N)=O)NC(=O)[C@H](Cc2ccc(C(F)(F)P(=O)(O)O)cc2)NC1=O	Not satisfied
CC(=O)N[C@@H](CCCCNC(=O)CCCC[C@@H]1SC[C@@H]2NC(=O)N[C@@H]21)C(=O)N[C@@H](CCC(=O)O)C(=O)N1CCC[C@H]1C(=O)N[C@@H](CCC(N)=O)C(=O)N[C@@H](Cc1ccc(C(F)(F)P(=O)(O)O)cc1)C(=O)N[C@@H](CCC(N)=O)C(=O)N1CCC[C@H]1C(=O)NCC(=O)N[C@@H](CCC(=O)O)C(=O)N[C@@H](CC(N)=O)C(=O)N[C@@H](CC(C)C)C(N)=O (Ac-K(Biotin)EPQ[F2Pmp]QPGENL-NH2)	Satisfied
C#CC[C@H](NC(=O)[C@H](CC(N)=O)NC(=O)[C@H](CCC(=O)O)NC(=O)CNC(=O)[C@@H]1CCCN1C(=O)[C@H](CCC(N)=O)NC(=O)[C@H](Cc1ccc(C(F)(F)P(=O)(O)O)cc1)NC(=O)[C@H](CCC(N)=O)NC(=O)[C@@H]1CCCN1C(=O)[C@H](CCC(=O)O)NC(=O)[C@H](CCCCNC(=O)CCCC[C@@H]1SC[C@@H]2NC(=O)N[C@@H]21)NC(=O)CCCCCN=[N+]=[N-])C(N)=O ({Hexanoyl(6-N3)}-K(Biotin)EPQ[F2Pmp]QPGEN[Pra]-NH2)	Satisfied
CC(=O)N[C@@H](CCCCNC(=O)CCCC[C@@H]1SC[C@@H]2NC(=O)N[C@@H]21)C(=O)N[C@@H](CCC(=O)O)C(=O)N1CCC[C@H]1C(=O)N[C@@H](CCC(N)=O)C(=O)N[C@@H](Cc1ccc(OP(=O)(O)O)cc1)C(=O)N[C@@H](CCC(N)=O)C(=O)N1CCC[C@H]1C(=O)NCC(=O)N[C@@H](CCC(=O)O)C(=O)N[C@@H](CC(N)=O)C(=O)N[C@@H](CC(C)C)C(N)=O (Ac-K(Biotin)EPQ[pY]QPGENL-NH2)	Not satisfied
C#CC[C@H](NC(=O)[C@H](CC(N)=O)NC(=O)[C@H](CCC(=O)O)NC(=O)CNC(=O)[C@@H]1CCCN1C(=O)[C@H](CCC(N)=O)NC(=O)[C@H](Cc1ccc(C(F)(F)P(=O)(O)O)cc1)NC(=O)[C@H](CCC(N)=O)NC(=O)[C@@H]1CCCN1C(=O)[C@H](CCC(=O)O)NC(=O)[C@H](CCCCNC(=O)CCCC[C@@H]1SC[C@@H]2NC(=O)N[C@@H]21)N=[N+]=[N-])C(N)=O (Biotin-[X1]EPQ[F2Pmp]QPGEN[Pra]-NH2)	Satisfied

Ask: Tell me whether Retention_time is at least 8 min here: NC(=O)CC[C@@H]1NC(=O)[C@@H]2CCCN2C(=O)[C@H](CCC(=O)O)NC(=O)[C@@H](CCCCNC(=O)CCCC[C@@H]2SC[C@@H]3NC(=O)N[C@@H]32)NC(=O)CCCCCn2cc(nn2)C[C@H](C(N)=O)NC(=O)[C@H](CC(N)=O)NC(=O)[C@H](CCC(=O)O)NC(=O)CNC(=O)[C@@H]2CCCN2C(=O)[C@H](CCC(N)=O)NC(=O)[C@H](Cc2ccc(C(F)(F)P(=O)(O)O)cc2)NC1=O
Reply: Not satisfied

Ask: Tell me whether Retention_time is at least 8 min here: NC(=O)CC[C@@H]1NC(=O)[C@@H]2CCCN2C(=O)[C@H](CCC(=O)O)NC(=O)[C@@H](CCCCNC(=O)CCCC[C@@H]2SC[C@@H]3NC(=O)N[C@@H]32)NC(=O)CCCCCn2cc(nn2)C[C@H](C(N)=O)NC(=O)[C@H](CC(N)=O)NC(=O)[C@H](CCC(=O)O)NC(=O)CNC(=O)[C@@H]2CCCN2C(=O)[C@H](CCC(N)=O)NC(=O)[C@H](Cc2ccc(O)cc2)NC1=O
Reply: Satisfied

Ask: Tell me whether Retention_time is at least 8 min here: NC(=O)CC[C@@H]1NC(=O)[C@@H]2CCCN2C(=O)[C@H](CCC(=O)O)NC(=O)[C@@H](CCCCNC(=O)CCCC[C@@H]2SC[C@@H]3NC(=O)N[C@@H]32)n2cc(nn2)C[C@H](C(N)=O)NC(=O)[C@H](CC(N)=O)NC(=O)[C@H](CCC(=O)O)NC(=O)CNC(=O)[C@@H]2CCCN2C(=O)[C@H](CCC(N)=O)NC(=O)[C@H](Cc2ccc(O)cc2)NC1=O
Reply: Satisfied
